src = ChEMBL document CHEMBL4665789

Listed here: items and their measured EC50.
Molecular target: 5-hydroxytryptamine receptor 1A (Homo sapiens, UniProt P08908)
Sequence (P08908 whole entry): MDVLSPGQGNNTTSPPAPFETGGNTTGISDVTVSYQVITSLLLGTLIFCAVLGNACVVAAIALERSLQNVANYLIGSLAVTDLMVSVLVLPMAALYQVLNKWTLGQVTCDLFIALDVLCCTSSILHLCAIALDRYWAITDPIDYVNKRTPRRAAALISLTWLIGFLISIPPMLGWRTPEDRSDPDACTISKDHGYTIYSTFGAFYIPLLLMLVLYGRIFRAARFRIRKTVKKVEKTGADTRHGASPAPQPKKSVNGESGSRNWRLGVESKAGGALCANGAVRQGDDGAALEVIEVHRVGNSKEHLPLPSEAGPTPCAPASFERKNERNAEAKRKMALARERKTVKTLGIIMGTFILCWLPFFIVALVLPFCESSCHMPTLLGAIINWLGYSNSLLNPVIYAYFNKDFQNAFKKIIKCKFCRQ
Test: Biased agonist activity at human 5-HT1A receptor stably expressed in CHO-K1 cells co-expressing Galpha16/GPCR assessed as increase in calcium mobilization measured for 30 secs in presence of coelenterazine by aequorin-reporter gene based luminescence assay
Format: functional, cell-based
Put your answer as a value accompanied by its unit after it.

Please review the entries below; each comes with its answer.
O=C(c1ccc(Cl)c(Cl)c1)N1CCC(F)(CNCCOc2cccc(F)c2)CC1	0.646 µM
Cc1cnc(CNCC2(F)CCN(C(=O)c3ccc(F)c(Cl)c3)CC2)nc1	0.302 µM

Here is the next item to consider.
So what does the record say about EC50 for O=C(c1ccc(F)c(Cl)c1)N1CCC(F)(CNCCOc2cccc3c2CCN3)CC1 ?
0.00355 µM
